Cited source for all entries: PubChem BioAssay (NCI)

Test: NCI Yeast Anticancer Drug Screen. Data for the mlh1 strain (AID 171)
Conditions: S. cerevisiae mlh1 strain growth inhibition; at 11.0 µM
This is part of a sample that, as a whole, favours compounds with a hit. Of some 79,000 tested, about 15% had one in any assay. Active and inactive are the calls of the source. No stated cut-off is given here; in the data, active means growth inhibition above about 70%; inactive means the rest.
Outcome codes: active, inactive

INSERT INTO assay_data (compound, class_assignment) VALUES
  ('O=C1Nc2ccc(Br)cc2C1=Nc1ccc2c(c1)OCO2', 'inactive'),
  ('COC(=O)C1(C)CCc2c(ccc3ccccc23)C1=O (configuration not stated)', 'inactive'),
  ('COc1ccc([N+](=O)[O-])c2c(NCCCN(C)C)c3ccccc3nc12', 'inactive'),
  ('O=[N+]([O-])c1ccc(N/N=C/Cc2ccccc2)c([N+](=O)[O-])c1', 'inactive'),
  ('COC(=O)NC1C(C)OC(OC2C/C=C(/C)C3C=CC4C(OC5CC(OC6CC(O)C(OC7CC(O)C(OC)C(C)O7)C(C)O6)C(O)C(C)O5)C(C)CC(C)C4C3(C)/C(O)=C3\C(=O)OC4(CC(C)C(CO)=CC4/C=C\2C)C3=O)CC1(C)[N+](=O)[O-] (configuration not stated)', 'inactive'),
  ('O=c1ccc2ccccc2c2ccccc12', 'active'),
  ('CC(C)=NOC(=O)Nc1ccc(Cl)cc1', 'inactive'),
  ('CC12C(=O)OC(=O)C(c3ccccc31)c1ccccc12', 'inactive'),
  ('CCCC(=O)Oc1c(C)cc([N+](=O)[O-])cc1[N+](=O)[O-]', 'active'),
  ('O=C1C=C(Cl)C(=O)C(c2ccc(Cl)cc2)=C1', 'active'),
  ('Cc1cc(O)c(C(C)C)cc1C1(c2cc(C(C)C)c(O)cc2C)OC(=O)c2ccccc21', 'inactive'),
  ('O=C(NCCCl)Sc1ccc(Cl)cc1', 'inactive'),
  ('CN(C)[C@@H]1C(=O)C(C(N)=O)=C(O)[C@@]2(O)C(=O)C3=C(O)c4c(O)cccc4C[C@H]3C[C@@H]12', 'inactive'),
  ('CCN(CC)CCNc1ccc2ncn3c4cc(OC)c(OC)c(=O)c4c(O)c1c23', 'inactive'),
  ('COc1cc2cc3c4cc(OC)c(OC)cc4cc[n+]3c(C)c2cc1OC', 'inactive'),
  ('OC1(c2ccccc2)CCCc2ccc(Cl)cc21 (configuration not stated)', 'inactive'),
  ('O=C1NC(=O)c2ccc([N+](=O)[O-])c3cccc1c23', 'inactive'),
  ('CNC(=O)OCc1c(COC(=O)NC)c2n(c1C)-c1ccc(OC)cc1CCC2', 'inactive'),
  ('Cc1ccc(N=Nc2ccc(O)c(=O)cc2)cc1', 'inactive'),
  ('N=C1N=Nc2nc(C3(c4nc5n(c4O)C(=N)N=N5)Cc4ccccc4C3=O)c(O)n21 (configuration not stated)', 'inactive'),
  ('Oc1cccc2cc(Cl)cnc12', 'inactive'),
  ('O=C1OC(C2=CC(=O)c3ccccc3C2=O)C(Cl)=C1Cl (configuration not stated)', 'inactive'),
  ('Cc1cc(C)c(NC(=S)NC(=O)c2ccccc2)cc1C', 'inactive'),
  ('CC(C)CCCC(C)C1CCC2C3CCC4=CC(=O)/C(=C\O)CC4(C)C3CCC12C (configuration not stated)', 'inactive'),
  ('CCC(C)NC1=NCC(C)S1 (configuration not stated)', 'inactive'),
  ('N#CNC(N)=Nc1cc2ccccc2c2ccccc12', 'active'),
  ('O=C(O)C1CC(c2ccccc2)=NN1c1ccccc1 (configuration not stated)', 'inactive'),
  ('Oc1ccc(SCc2ccc(NCc3ccccc3)cc2)cc1', 'inactive'),
  ('CC1CC(C)(C)CC(OCCN2CCCCC2)(c2ccccc2)C1 (configuration not stated)', 'inactive'),
  ('CCCCC/C(=C(\C#N)C(=O)OCC)c1ccccc1', 'inactive'),
  ('O=[N+]([O-])c1cc(S(=O)(=O)Nc2ccccc2)ccc1Nc1ccccc1', 'active'),
  ('NC(N)=NS(=O)(=O)c1ccc(Nc2c3ccccc3nc3c(C(=O)NCCO)cccc23)cc1', 'inactive'),
  ('COC(=O)C1=C(C(=O)OC)C(C(=O)OC)C(C(=O)OC)C(C(=O)OC)(C(=O)OC)C(C(=O)OC)=C1C(=O)OC (configuration not stated)', 'inactive'),
  ('NC(=O)c1c([N+](=O)[O-])cc(C(F)(F)F)cc1[N+](=O)[O-]', 'inactive'),
  ('Cc1c(C(C)C)cc(OCCO)cc1C(C)C', 'inactive'),
  ('OC(/C=C/c1ccccc1)(Cc1cc(-c2ccccc2)n[nH]1)c1ccccc1 (configuration not stated)', 'inactive'),
  ('O=C(C[n+]1ccc2ccccc2c1)c1ccc2ccccc2c1', 'inactive');
